Property: IC50; scope: individual compounds
- measured_target: human Werner helicase (WRN, amino acids 517-1235 with L1074F point mutation) (Homo sapiens (Human), UniProt Q14191, L1074F)
- Sequence (Q14191 other isoform, or with tags, fused parts or gaps L1074F (already in the parent)): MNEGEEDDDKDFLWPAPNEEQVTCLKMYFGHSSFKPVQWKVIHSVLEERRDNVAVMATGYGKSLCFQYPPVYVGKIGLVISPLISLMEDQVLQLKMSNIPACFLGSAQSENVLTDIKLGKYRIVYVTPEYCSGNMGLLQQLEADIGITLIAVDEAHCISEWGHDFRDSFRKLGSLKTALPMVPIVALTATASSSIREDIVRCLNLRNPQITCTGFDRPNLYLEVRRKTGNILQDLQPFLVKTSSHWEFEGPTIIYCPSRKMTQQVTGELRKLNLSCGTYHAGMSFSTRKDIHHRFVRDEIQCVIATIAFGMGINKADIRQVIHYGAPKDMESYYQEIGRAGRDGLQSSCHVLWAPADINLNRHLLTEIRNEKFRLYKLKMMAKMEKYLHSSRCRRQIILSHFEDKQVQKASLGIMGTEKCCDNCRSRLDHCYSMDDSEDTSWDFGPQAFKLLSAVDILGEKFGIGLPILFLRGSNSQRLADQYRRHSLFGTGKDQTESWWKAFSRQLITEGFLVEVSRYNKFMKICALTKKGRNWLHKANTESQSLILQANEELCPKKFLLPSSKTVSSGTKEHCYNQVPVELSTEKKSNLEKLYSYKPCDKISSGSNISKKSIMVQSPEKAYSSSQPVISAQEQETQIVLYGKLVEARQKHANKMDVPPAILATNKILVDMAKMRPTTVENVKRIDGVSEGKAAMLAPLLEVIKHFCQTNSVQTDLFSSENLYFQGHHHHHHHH
- assay_info: WRN (BV08) ADP-Glo assay
- measurement_context: human WRN (aa 517-1235, L1074F), read-out: ADP-Glo_hWRN_IC50

Solved cases below.
# compound, IC50
records = [
    ("CCc1c(N2CCN(C(=O)c3ncnc(C)c3O)[C@H]3CC[C@@H]32)c(=O)c2nn(-c3ccnc(OC)c3)nc2n1CC(=O)NC12CC(C3CC3)(C1)C2 [Compound I-30]", "0.005 to 0.05 µM"),
    ("CCc1c(N2CCN(C(=O)c3c(OC)ncc(C)c3O)[C@H]3CC[C@@H]32)c(=O)c2nn(C3=CCOCC3)nc2n1CC(=O)NC12CC(C(C)C)(C1)C2 [Compound I-92]", "0.005 to 0.05 µM"),
    ("CCc1c(N2CCN(C(=O)c3c(OC)ncc(C)c3O)CC2)c(=O)c2nn(-c3ccnc(OC)c3)nc2n1CC(=O)NC12CC(N3CCCC3)(C1)C2", "> 0.5 µM"),
    ("CCc1c(N2CCN(C(=O)c3c(O)ccc4ncoc34)CC2)c(=O)c2nn(C(C)C)nc2n1CC(=O)Nc1ccc(C(F)(F)F)cc1Cl", "≤ 0.005 µM"),
]

// next item, IC50 requested
Exercise: Dear colleague, I am looking for the recorded IC50 of the following compound: CCc1c(N2CCN(C(=O)c3ncnc(C)c3O)[C@H]3CC[C@@H]32)c(=O)c2nn(-c3ccnc(OC)c3)nc2n1CC(=O)NC1CC2(CCC(F)(F)CC2)C1
Key: 0.005 to 0.05 µM

These entries and their values trace back to patent US20250129069A1.
